Attribution: ChEMBL document CHEMBL4513216

This listing pairs compounds with measured cytotoxicity at 10 µM.
# measurement_protocol: Toxicity liver stage against HepG2, at 10uM
# Type: cell-based
# Design: test concentration 10 uM, cell line HepG2-A16-CD81EGFP
# condition_context: human, HepG2-A16-CD81EGFP cells; read-out: INHIBITION
parameter_measured: cytotoxicity at 10 µM (%)

compound: N#CCCN(Cc1ccco1)C(=O)c1ccc(OCC2CC2)cc1
numeric_readout: -5.87
--
compound: CN(C)c1nccc(CNS(=O)(=O)c2cc(Cl)cc(Cl)c2)n1
numeric_readout: -138
--
compound: Cc1nc(CN2CCCC(N(C)CCc3cccs3)C2)no1 (configuration not stated)
numeric_readout: -21.8
--
compound: CC[C@H](C)Nc1nccc(-c2cnc3sccn3c2=O)n1
numeric_readout: -8.72
--
compound: COCCN1CCN(CC(=O)N(C)Cc2ccc(F)cc2)CC1C (configuration not stated)
numeric_readout: -145
--
compound: CN1CCOC(CNCc2c(Cl)nc3ccccn23)C1 (configuration not stated)
numeric_readout: -0.0638
--
compound: O=C(CC(F)(F)F)N1C[C@H]2CCN[C@H]2C1
numeric_readout: 2.95
--
compound: COc1ccc(-c2nc(C3(NC(=O)OC(C)(C)C)CCC3)no2)cn1
numeric_readout: 12.5
--
compound: CS(=O)(=O)NC1CCN(Cc2coc(-c3ccccc3)n2)CC1
numeric_readout: -43.3
--
compound: CCNC(c1ccc(F)cc1)c1cccnc1 (configuration not stated)
numeric_readout: 2.73
--
compound: O=C(CN1C=Nc2ccccc2S1(=O)=O)NCCCc1ccccc1
numeric_readout: -3.54
--
compound: O=C(NCCN1CCC(c2cccs2)CC1)Nc1cccs1
numeric_readout: -20.6
